Consider molecules characterized by their pIC50 with Pol Theta (1-894) (Homo sapiens (Human), UniProt O75417).
Sequence (O75417 1-894): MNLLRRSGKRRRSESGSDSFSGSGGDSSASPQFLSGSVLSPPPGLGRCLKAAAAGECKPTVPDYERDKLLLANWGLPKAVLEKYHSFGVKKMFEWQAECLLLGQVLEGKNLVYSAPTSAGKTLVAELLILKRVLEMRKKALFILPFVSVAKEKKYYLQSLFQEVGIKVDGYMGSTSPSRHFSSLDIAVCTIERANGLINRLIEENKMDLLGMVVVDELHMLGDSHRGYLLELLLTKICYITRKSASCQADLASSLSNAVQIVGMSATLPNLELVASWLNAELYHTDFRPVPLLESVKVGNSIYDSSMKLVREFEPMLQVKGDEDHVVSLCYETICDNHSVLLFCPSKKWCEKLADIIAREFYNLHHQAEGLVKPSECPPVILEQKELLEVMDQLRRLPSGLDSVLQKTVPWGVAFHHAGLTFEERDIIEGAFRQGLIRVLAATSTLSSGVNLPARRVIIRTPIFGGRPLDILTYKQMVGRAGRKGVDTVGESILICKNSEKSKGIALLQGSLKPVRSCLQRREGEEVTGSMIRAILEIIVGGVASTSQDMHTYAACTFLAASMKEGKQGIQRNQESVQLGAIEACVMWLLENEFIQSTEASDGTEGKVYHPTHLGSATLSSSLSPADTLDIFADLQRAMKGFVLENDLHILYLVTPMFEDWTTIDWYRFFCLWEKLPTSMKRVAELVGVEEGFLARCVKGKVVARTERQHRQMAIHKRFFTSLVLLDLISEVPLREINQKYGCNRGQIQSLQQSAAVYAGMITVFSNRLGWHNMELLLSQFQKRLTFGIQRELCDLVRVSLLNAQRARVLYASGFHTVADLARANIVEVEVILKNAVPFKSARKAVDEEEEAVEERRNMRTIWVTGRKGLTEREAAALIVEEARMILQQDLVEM
Please express pIC50 as -log10 of the molar concentration.

Answered examples (3):
>>> print(df.to_string())
                                smiles_code  value_observed
0  CCNC(=O)c1ccc(-c2ccc3nc(NC(=O)c4cnc(C)cc4-c4cc(C#N)ccc4OC)sc3n2)cc1            7.82
1  COc1ccccc1-c1cnncc1C(=O)Nc1nc2ccc(-c3ccc(Cl)c(C)c3C)nc2s1            7.68
2  COc1ccccc1-c1cnncc1C(=O)Nc1nc2ccc(-c3ccc(S(C)(=O)=O)cc3F)nc2s1            7.96

// next item, pIC50 requested
Request: Query (molecule): Cc1cc(-c2cc(C#N)c(=O)n(C)c2C)c(C(=O)Nc2nc3ccc(-c4ccc(C#N)cc4)nc3s2)cn1 ; field requested: pIC50
Response: 7.59
